SYSTEM_TESTED: T1, VEGFR-2-Fc (UniProt P35968 20-322)
T1 construct: domain: first 3 Ig domains; conditioned supernatant of 293T cells; also called VEGFR-2-Fc fusion protein; not shown: Fc fragment of the pIg vector
TEST_NAME: receptor-Fc IP
MEASURED_QUANTITY: binding result

82-7 (ligand, clone entry) AHYNTEILKFMDVYQRSYCHPIETLVDIFQEFGVATNTFFKPPCVSVYRCGGCCNSEGLQCVPTEESNITMQIMRIKPHQGQHIGEMSFANHTSCRCMSKLDLVF | binds
